Provide the recorded log10 of IC50 for the entries that follow.
biological target: DRB1*1501 (Homo sapiens, UniProt P01903+P01911); assay: biochemical; format: binding
No end group written: not given here.
Scale: log10; quantity: IC50; unit before log: µM

### Prompt Provide log10 of IC50 value for the following sequence: AKALQAIELQMMLET [Peptide 89.0171]
### Response 0.93

### Prompt Provide log10 of IC50 value for the following sequence: TYGVSFMELVRPFKS [Peptide 89.0095]
### Response -0.23

### Prompt Provide log10 of IC50 value for the following sequence: SDEISFAGIVTKLPT [Peptide 1601.45]
### Response -0.10

### Prompt Provide log10 of IC50 value for the following sequence: SNLLSIPETCMVIEP [Peptide 89.0067]
### Response -0.29

### Prompt Provide log10 of IC50 value for the following sequence: DLRVVQQLLMGALTV [Peptide 85.0092]
### Response -1.24

### Prompt Provide log10 of IC50 value for the following sequence: KTLIKPATLYAHIQC [Peptide 89.0083]
### Response -0.18

### Prompt Provide log10 of IC50 value for the following sequence: ESDMAFQYAQLADCN [Peptide 89.0085]
### Response 0.87

Data origin, for the record: patent US9340577B2
